# Target: COVID S1 RBD Fc fusion (Antigen 1) (SARS-CoV-2), P0DTC2
# Test summary: phage ELISA
# Conditions: remark: other sources report otherwise
Reported property: ELISA fold over background

SARS-CoV-2 variant 1-31 (antibody) chain 1: EVQLLESGGGLVQPGGSLRLSCAASGFTFSSYAMNWVRQAPGKGLEWVSAISGSGGSTFYADSVKGRFTISRDNSKNTLYLQMNSLRAEDTAVYYCTRPPYGDYGDYWGQGTLVTVSS chain 2: QSALTQPASVSGSPGQSITISCTGTSSDVGKYNLVSWYQQHPGKAPKLMIYEGSQRPSGVSNRFSGSKSGNTASLTISGLQAEDEADYYCCSYAGSRTPVVFGGGTKLTVL : 1.3 fold
SARS-CoV-2 variant 1-3 (antibody) chain 1: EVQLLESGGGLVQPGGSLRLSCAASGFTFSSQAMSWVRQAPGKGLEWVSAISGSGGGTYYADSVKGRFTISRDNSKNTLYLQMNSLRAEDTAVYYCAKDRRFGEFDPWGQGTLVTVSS chain 2: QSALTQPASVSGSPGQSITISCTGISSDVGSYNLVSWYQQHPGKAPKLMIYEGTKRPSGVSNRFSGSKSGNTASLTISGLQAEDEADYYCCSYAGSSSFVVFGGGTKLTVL : 1.8 fold
